Target: Serine/threonine-protein kinase 10 (Homo sapiens);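 also: reported value is the mean percent inhibition of LOK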
Details: at 1 µM
For each record, write down the corresponding inhibition.
Answers are plain numbers, in %.

// solved cases for inhibition follow
CC1=C(C(=O)Nc2ccc3[nH]ncc3c2)C(c2ccc3ccccc3c2)CC(=O)N1 (stereo not given); 2.84
NS(=O)(=O)c1cccc(-c2ccc3c(NC(=O)C4CC4)n[nH]c3c2)c1; 7.09
Cc1ccc(C(=O)NC2CCCCC2)cc1-c1ccc(C(=O)NCC2CC2)cc1; 6.5

// batch mode: one inhibition value per listed entry
1. COc1ccc(COc2ccc(Cc3cnc(N)nc3N)cc2OC)cc1
2. CCCN1CCC(Oc2cc(Nc3nc(Nc4cccc(F)c4C(N)=O)c4cc[nH]c4n3)c(OC)cc2Cl)CC1
3. CN(C)c1cc2c(Nc3ccc4nc(Cc5ccccc5)[nH]c4c3)ncnc2cn1
4. O=C1NC(=O)C(c2cccc(Cl)c2)=C1Nc1ccc(O)c(Cl)c1
5. Cn1cc(C=C2C(=O)Nc3cccnc32)c2ccccc21

[7.31, 7.28, 14.4, 46.3, 12]

// batch mode: one inhibition value per listed entry
1. Cc1cc(O)cc(C)c1/C=C/c1cncc(-c2nn[nH]n2)c1
2. COc1cc2ncn(-c3cc(OCc4ccccc4C(F)(F)F)c(C(N)=O)s3)c2cc1OC

1: 39.7; 2: 88.3

* * *

For each record, write down the corresponding inhibition.
Target: Tyrosine-protein kinase Yes (Homo sapiens);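 also: mean inhibition of YES, from the GSK PKIS dataset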
Conditions: at 0.1 µM
Answers are plain numbers, in %.

CCc1cccc(NC(=O)Nc2ccc(Oc3ccc4nc(NC(=O)OC)[nH]c4c3)cc2)c1; 0.83
CN(C)c1cc2c(Nc3ccc4nc(Cc5ccccc5)[nH]c4c3)ncnc2cn1; 9.2
CCn1c(-c2nonc2N)nc2cncc(C(=O)N3CCNCC3)c21; 2.93
NC(=O)c1ccc(-c2nc(-c3ccccn3)c(-c3ccc4c(c3)OCO4)[nH]2)cc1; 2.51

// batch mode: one inhibition value per listed entry
1. CS(=O)(=O)CCN(CC#N)Cc1ccc(-c2ccc3ncnc(Nc4ccc(OCc5cccc(F)c5)c(Cl)c4)c3c2)o1
2. CCn1c(-c2nonc2N)nc2cncc(C(=O)N3CC[C@H](N)C3)c21
3. COc1cc2c(cc1Nc1nc(N3CCc4ccccc43)c3cc[nH]c3n1)N(C(=O)CN(C)C)CC2
4. COc1ccc(-c2coc3ncnc(N)c23)cc1
5. COc1cc2ncn(-c3cc(OCc4ccccc4Cl)c(C(N)=O)s3)c2cc1OC
6. c1cnn2ncc(-c3ccnc(Nc4ccc5c(c4)OCCO5)n3)c2c1
7. Cn1cc(C=C2C(=O)Nc3cccnc32)c2ccccc21

1. -1.67
2. 1.84
3. -0.07
4. 1.25
5. 3.58
6. 6.25
7. 5.4

* * *

Tested on: Tyrosine-protein kinase ABL1 (Homo sapiens), P00519 [M351T]
Details: at 0.1 µM
For each record, write down the corresponding inhibition.
Give bare numbers, in %.

// solved cases for inhibition follow
CCCN1CCC(Oc2cc(Nc3nc(Nc4cccc(F)c4C(N)=O)c4cc[nH]c4n3)c(OC)cc2Cl)CC1; 2.95
COc1ccc(-c2nn3ncccc3c2-c2ccnc(Nc3ccc(Cl)c(C(F)(F)F)c3)n2)cc1; 2.03
Cc1nn(C)c2cc(N(C)c3ccnc(Nc4cccc(S(N)(=O)=O)c4)n3)ccc12; 58.2

Any idea what its inhibition is? The molecule is Nc1nc(-c2ccccn2)c(-c2ccc3ncccc3n2)s1 -0.12
